Values compiled from patent US20090036444A1.

Here the recorded IC50 is given for each entry.
target: HCV polymerase H544 1a 3X (UniProt P27958); construct: fused on or other part: 6 His tag at the C-terminus, for the BK (1b) enzyme; test: Assay of enzyme (HCV polymerase) inhibitory activity, H544 1a 3X; assay type: biochemical; conditions: read-out: H544 1a 3X IC50, 25° C., 90 min, [5,6-3H]UTP incorporation
Where a name gives a salt, the structure may show the parent alone.

These recorded examples may help you get a feel for the data.
INSERT INTO assay_data (compound, observed_result) VALUES
  ('CC(=O)N(C)c1ccc(N2CCOCC2)c(COc2ccc(-c3c(C4CCCCC4)c4sc(C(=O)O)cc4n3C)cc2)c1 [Example 17, hydrochloride]', '< 100 nM'),
  ('O=C(O)c1cc2c(s1)c(C1CCCCC1)c(-c1ccc(OCc3ccccc3)cc1)n2CCN1CCN(C2CCCCC2)CC1 [Example 53, dihydrochloride]', '100 to 1000 nM'),
  ('CN(CCN1CCCCC1)CCn1c(-c2ccc(OCc3ccccc3)cc2)c(C2CCCCC2)c2sc(C(=O)O)cc21 [Example 59, dihydrochloride]', '100 to 1000 nM'),
  ('CN(C)CC(=O)Nc1ccc(N2CCOCC2)c(COc2ccc(-c3c(C4CCCCC4)c4sc(C(=O)O)cc4n3C)cc2)c1 [Example 40, dihydrochloride]', '< 100 nM'),
  ('CN(C(=O)CN1CCOCC1)c1ccc(N2CCOCC2)c(COc2ccc(-c3c(C4CCCCC4)c4sc(C(=O)O)cc4n3C)cc2)c1 [Example 57, dihydrochloride]', '< 100 nM');

Query :: Give a short answer stating reported IC50 for CN(C)CC(=O)N(C)c1ccc(N2CCOCC2)c(COc2ccc(-c3c(C4CCCCC4)c4sc(C(=O)O)cc4n3C)cc2)c1 [Example 43, dihydrochloride] .
Result :: < 100 nM

---

target: HCV polymerase H544 1a 3X (UniProt P27958); construct: fused on or other part: 6 His tag at the C-terminus, for the BK (1b) enzyme; assay: Assay of enzyme (HCV polymerase) inhibitory activity, H544 1a 3X; format: biochemical; settings: 25° C., 90 min, [5,6-3H]UTP incorporation, read-out: H544 1a 3X IC50
Counter-ions that a name gives are not always drawn.
property: IC50

Worked examples follow.
INSERT INTO assay_data (compound, experimental_target, property, observed_result) VALUES
  ('COc1ccc(-c2c(C3CCCCC3)c3sc(C(=O)O)cc3n2CC(=O)NC(C)(C)C)cc1', 'HCV polymerase H544 1a 3X (UniProt P27958)', 'IC50', '< 100 nM'),
  ('COc1ccc(-c2c(C3CCCCC3)c3sc(C(=O)O)cc3n2CC(=O)NCc2ccccc2)cc1', 'HCV polymerase H544 1a 3X (UniProt P27958)', 'IC50', '< 100 nM'),
  ('CC(C)C(=O)Nc1ccc(N2CCOCC2)c(COc2ccc(-c3c(C4CCCCC4)c4sc(C(=O)O)cc4n3C)cc2)c1 [Example 29, hydrochloride]', 'HCV polymerase H544 1a 3X (UniProt P27958)', 'IC50', '< 100 nM'),
  ('CN(C)C(=O)Cn1c(-c2ccc(OC3CCCN(C(=O)OC(C)(C)C)C3)cc2)c(C2CCCCC2)c2sc(C(=O)O)cc21 (stereo not shown)', 'HCV polymerase H544 1a 3X (UniProt P27958)', 'IC50', '< 100 nM'),
  ('O=C(Cn1c(-c2ccc(OCc3ccccc3)cc2)c(C2CCCCC2)c2sc(C(=O)O)cc21)Nc1ccc(N2CCOCC2)cc1 [Example 51, hydrochloride]', 'HCV polymerase H544 1a 3X (UniProt P27958)', 'IC50', '< 100 nM'),
  ('CN(C)C(=O)Cn1c(-c2ccc(OC3CCN(C(=O)OC(C)(C)C)CC3)cc2)c(C2CCCCC2)c2sc(C(=O)O)cc21', 'HCV polymerase H544 1a 3X (UniProt P27958)', 'IC50', '100 to 1000 nM');

Consider now this further compound.
Query :: Provide IC50, recorded with HCV polymerase H544 1a 3X (UniProt P27958), of "CC(C)(C)NC(=O)Cn1c(-c2ccc(OCc3ccccc3)cc2)c(C2CCCCC2)c2sc(C(=O)O)cc21"
Result :: 100 to 1000 nM

---

Quick reference for pIC50 among some compounds
target: HCV polymerase H544 1a 3X (UniProt P27958); construct: fused on or other part: 6 His tag at the C-terminus, for the BK (1b) enzyme; assay: Assay of enzyme (HCV polymerase) inhibitory activity, H544 1a 3X; assay type: biochemical; settings: 25° C., 90 min, [5,6-3H]UTP incorporation, read-out: H544 1a 3X IC50
pIC50: −log10 of the molar value. Structures can show the parent of a compound that is named as a salt.

INSERT INTO assay_data (compound, experimental_target, property, observed_result) VALUES
  ('Cn1c(-c2ccc(OCc3ccccc3N3CCOCC3)cc2)c(C2CCCCC2)c2sc(C(=O)O)cc21 [Example 31, hydrochloride]', 'HCV polymerase H544 1a 3X (UniProt P27958)', 'pIC50', '> 7.00'),
  ('COc1ccc(-c2c(C3CCCCC3)c3sc(C(=O)O)cc3n2CC(=O)N2CCOCC2)cc1', 'HCV polymerase H544 1a 3X (UniProt P27958)', 'pIC50', '6.00 to 7.00'),
  ('CN(C)C(=O)Cn1c(-c2ccc(Oc3ccccc3)cc2)c(C2CCCCC2)c2sc(C(=O)O)cc21', 'HCV polymerase H544 1a 3X (UniProt P27958)', 'pIC50', '> 7.00'),
  ('O=C(O)c1cc2c(s1)c(C1CCCCC1)c(-c1ccc(OCc3ccccc3)cc1)n2CCN1CCC(N2CCCCC2)CC1 [Example 55, dihydrochloride]', 'HCV polymerase H544 1a 3X (UniProt P27958)', 'pIC50', '6.00 to 7.00'),
  ('Cn1c(-c2ccc(OCc3cc(N4CCCC4=O)ccc3N3CCOCC3)cc2)c(C2CCCCC2)c2sc(C(=O)O)cc21 [Example 15, hydrochloride]', 'HCV polymerase H544 1a 3X (UniProt P27958)', 'pIC50', '> 7.00');

Query :: Name the recorded pIC50 of the item CC(=O)N(C)c1ccc(N2CCN(S(C)(=O)=O)CC2)c(COc2ccc(-c3c(C4CCCCC4)c4sc(C(=O)O)cc4n3C)cc2)c1 [Example 20, hydrochloride] in your answer.
Result :: > 7.00

Query :: Supply measured pIC50 of "Cn1c(-c2ccccc2OCc2ccccc2)c(C2CCCCC2)c2sc(C(=O)O)cc21" in your reply.
Result :: 6.00 to 7.00

---

molecular target: HCV polymerase H544 1a 3X (UniProt P27958); construct: fused on or other part: 6 His tag at the C-terminus, for the BK (1b) enzyme; assay: Assay of enzyme (HCV polymerase) inhibitory activity, H544 1a 3X; assay type: biochemical; details: 25° C., 90 min, [5,6-3H]UTP incorporation, read-out: H544 1a 3X IC50
Counter-ions that a name gives are not always drawn.
Entries and their measured IC50 follow.

INSERT INTO measurements (compound, observed_result) VALUES
  ('CCOC(=O)c1cc2c(s1)c(C1CCCCC1)c(-c1ccc(OCc3cc(N4CCCC4=O)ccc3N3CCOCC3)cc1)n2C [Example 24, hydrochloride]', '100 to 1000 nM');

Query :: Quote IC50 with test system HCV polymerase H544 1a 3X (UniProt P27958) for "CN(C)C(=O)Cn1c(-c2ccc(OCc3ccccc3)cc2)c(C2CCCCC2)c2sc(C(=O)O)cc21"
Result :: < 100 nM

Query :: Give reported IC50 for "COCCn1c(-c2ccc(OCc3ccccc3)cc2)c(C2CCCCC2)c2sc(C(=O)O)cc21" (HCV polymerase H544 1a 3X (UniProt P27958))
Result :: 100 to 1000 nM

Query :: Retrieve IC50 on HCV polymerase H544 1a 3X (UniProt P27958); query O=C(O)c1cc2c(s1)c(C1CCCCC1)c(-c1ccc(OCc3ccccc3)cc1)n2CC(=O)N1CCC(N2CCCCC2)CC1 [Example 54, hydrochloride]
Result :: < 100 nM

Query :: Report measured IC50 on HCV polymerase H544 1a 3X (UniProt P27958); entry: Cn1c(-c2ccc(OCc3cc(N)ccc3N3CCN(S(C)(=O)=O)CC3)cc2)c(C2CCCCC2)c2sc(C(=O)O)cc21 [Example 19, hydrochloride]
Result :: < 100 nM

Query :: Fill: IC50 (HCV polymerase H544 1a 3X (UniProt P27958)) for this compound "O=C(O)c1cc2c(s1)c(C1CCCCC1)c(-c1ccc(OCc3ccccc3)cc1)n2Cc1ccccc1"
Result :: 100 to 1000 nM
